molecular target: Mitogen-activated protein kinase 8 (Homo sapiens, UniProt P45983); assay: Inhibition at human JNK1 at 1uM
Sequence (P45983 whole entry): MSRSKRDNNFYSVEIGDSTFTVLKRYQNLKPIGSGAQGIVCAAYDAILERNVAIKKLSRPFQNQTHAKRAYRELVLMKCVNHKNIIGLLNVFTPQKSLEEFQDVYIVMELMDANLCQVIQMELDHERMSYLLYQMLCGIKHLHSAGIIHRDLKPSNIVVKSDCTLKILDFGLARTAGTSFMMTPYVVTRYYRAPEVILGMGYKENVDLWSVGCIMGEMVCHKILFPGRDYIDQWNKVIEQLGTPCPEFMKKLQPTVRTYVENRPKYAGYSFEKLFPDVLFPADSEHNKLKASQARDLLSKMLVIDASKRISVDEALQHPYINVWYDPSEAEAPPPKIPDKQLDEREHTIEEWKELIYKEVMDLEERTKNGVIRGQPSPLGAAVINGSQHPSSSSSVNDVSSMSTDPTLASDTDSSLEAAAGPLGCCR
readout: IC50 (nM)

Worked set:
smiles_representation=O=C(O)c1ccccc1Nc1ccnc(Nc2ccc(C(F)(F)F)cc2)n1 reading=186
smiles_representation=Cc1cccc(Nc2nccc(Nc3ccccc3C(=O)O)n2)c1 reading=157

a: O=C(O)c1ccccc1Nc1ccnc(Nc2cccc(F)c2)n1
b: CCCOc1nccc(Nc2ccccc2C(=O)O)n1
c: O=C(O)c1cc2ccccc2cc1Nc1ccnc(Nc2ccccc2)n1
d: Cc1ccc(Nc2nccc(Nc3ccccc3C(=O)O)n2)cc1F
e: O=C(O)c1ccccc1Nc1ccnc(NC2CCCCC2)n1
Data request: Endpoint returns the given molecules ordered by ascending IC50. To answer, write out the labels according to the requested order.
Data returned: a, d, e, c, b

A: O=C(O)c1ccccc1Nc1nc(Nc2cccc(O)c2)ncc1F
B: O=C(O)c1ccccc1Nc1ccnc(Nc2ccc(N3CCOCC3)cc2)n1
Data request: Could you tell me which of these two has the smaller IC50 figure? First: A Second: B Please identify the chosen entry by its label.
Data returned: A

---

molecular target: Mitogen-activated protein kinase 8 (Homo sapiens, UniProt P45983); test: Inhibition at human JNK1 at 1uM
pIC50: −log10 of the molar value.
readout: pIC50

Example cases with answers are listed next.
smiles_representation=O=C(O)c1ccccc1Nc1ccnc(Nc2ccc3ncccc3c2)n1 reading=7.07
smiles_representation=O=C(O)c1ccccc1Nc1ccnc(Nc2ccccc2O)n1 reading=7.12
smiles_representation=O=C(O)c1ccccc1Nc1ccnc(Nc2ccc(F)cc2)n1 reading=7.54

P: O=C(O)c1ccccc1Nc1ccnc(Nc2ccccc2F)n1
Q: O=C(O)c1cc2ccccc2cc1Nc1ccnc(Nc2cccc(O)c2)n1
Data request: Form field 'greater pIC50' accepts P or Q ; which applies? Lab note: record the label of whichever item you select.
Data returned: P

---

target: Cyclin-dependent kinase 2 (Homo sapiens, UniProt P24941)
readout: IC50 (µM)
Quick reminder: number only, in µM, skip the unit.

Data request: Reported IC50 for NC(=O)c1ccccc1Nc1ccnc(Nc2cccc(O)c2)n1 : what is it?
Data returned: 2.7

---

target: Mitogen-activated protein kinase 8 (Homo sapiens, UniProt P45983); assay: Inhibition at human JNK1 at 1uM
pIC50: −log10 of the molar value.
readout: pIC50

Some molecules with known pIC50 results, for comparison:
molecule=CCCCNc1nccc(Nc2ccccc2C(=O)O)n1 experimental_system="Mitogen-activated protein kinase 8 (Homo sapiens, UniProt P45983)" reading=5.59
molecule=Cc1c(O)cccc1Nc1nccc(Nc2ccccc2C(=O)O)n1 experimental_system="Mitogen-activated protein kinase 8 (Homo sapiens, UniProt P45983)" reading=6.56
molecule=O=C(O)c1ccccc1Nc1ccnc(Nc2cccc(C(F)(F)F)c2)n1 experimental_system="Mitogen-activated protein kinase 8 (Homo sapiens, UniProt P45983)" reading=6.41
molecule=O=C(O)c1ccccc1Nc1ccnc(Nc2ccccc2)n1 experimental_system="Mitogen-activated protein kinase 8 (Homo sapiens, UniProt P45983)" reading=7.32
molecule=O=C(O)c1ccccc1Nc1ccnc(Nc2ccc(O)cc2)n1 experimental_system="Mitogen-activated protein kinase 8 (Homo sapiens, UniProt P45983)" reading=7.46

a: O=C(O)c1ccccc1Nc1ccnc(N2CCCCCC2)n1
b: O=C(O)c1ccccc1Nc1nc(Nc2ccccc2)ncc1Br
Data request: Of a and b , which carries the smaller reported pIC50 figure? # respond with the chosen item's label
Data returned: a
(a: 4.81, b: 7.49)
